Details: human
Could you please report measured Hepatotoxicity (cytolytic) for the items listed next?
Answers are plain numbers.

{"molecule": "Cc1nnc(SCC2=C(C(=O)O)N3C(=O)[C@@H](NC(=O)Cn4cnnn4)[C@H]3SC2)s1", "measured value": 1}
{"molecule": "CC(=O)c1ccc2c(c1)N(CC(C)N(C)C)c1ccccc1S2 (centres undefined)", "measured value": 0}
{"molecule": "COc1cc2oc(=O)c(C)c(C)c2cc1OCCCN1CCN(c2ccccc2OC)CC1", "measured value": 0}

We next turn to a different molecule, shown below.
### Prompt Assign Hepatotoxicity (cytolytic) to the following record: NC[C@@H]1CC[C@@H](N)[C@@H](O[C@H]2[C@H](O)[C@@H](O[C@H]3O[C@H](CO)[C@@H](O)[C@H](N)[C@H]3O)[C@H](N)C[C@@H]2N)O1
### Response 0

----------
Conditions: human, serum
parameter: Hepatotoxicity (acute)
One number for each entry.

Here are 10 molecules together with their reported answers.
{"molecule": "O=C(NCCN1CCC(n2c(=O)[nH]c3cc(Cl)ccc32)CC1)c1ccc(F)cc1 [HALOPEMIDE]", "Hepatotoxicity (acute)": 0}
{"molecule": "CN(C)[C@@H]1C(O)=C(C(=O)NCNCCCC[C@H](N)C(=O)O)C(=O)[C@@]2(O)C(O)=C3C(=O)c4c(O)cccc4[C@@](C)(O)[C@H]3C[C@@H]12", "Hepatotoxicity (acute)": 1}
{"molecule": "CO/N=C(\\C(=O)N[C@@H]1C(=O)N2C(C(=O)[O-])=C(C[n+]3ccn4ncccc43)CS[C@H]12)c1nsc(N)n1", "Hepatotoxicity (acute)": 0}
{"molecule": "COc1ccc2c(C(=O)c3ccc(Cl)cc3)c(C)n(CC(=O)O)c2c1", "Hepatotoxicity (acute)": 18}
{"molecule": "NCC[C@H](O)C(=O)N[C@@H]1C[C@H](N)[C@@H](O[C@H]2O[C@H](CN)[C@@H](O)[C@H](O)[C@H]2O)[C@H](O)[C@H]1O[C@H]1O[C@H](CO)[C@@H](O)[C@H](N)[C@H]1O", "Hepatotoxicity (acute)": 0}
{"molecule": "O=C(Cc1cccs1)N[C@@H]1C(=O)N2C(C(=O)[O-])=C(C[n+]3ccccc3)CS[C@H]12", "Hepatotoxicity (acute)": 0}
{"molecule": "Nc1c2c(nc3ccccc13)CCCC2O (configuration not stated)", "Hepatotoxicity (acute)": 2}
{"molecule": "c1ccc(C2(N3CCCCC3)CCCCC2)cc1", "Hepatotoxicity (acute)": 2}
{"molecule": "CCC1=C(C[C@H]2NCCc3cc(OC)c(OC)cc32)C[C@H]2c3cc(OC)c(OC)cc3CCN2C1 [DEHYDROEMETINE]", "Hepatotoxicity (acute)": 0}
{"molecule": "NC(=O)NC(=O)Cc1ccccc1 [PHENACEMIDE]", "Hepatotoxicity (acute)": 13}

Below are some molecules; for each one, tell me its Hepatotoxicity (acute).
1. CC(NC(C)(C)C)C(=O)c1cccc(Cl)c1 (configuration not stated)
2. C[C@]1(O)CC[C@H]2[C@@H]3CCC4=CC(=O)CC[C@@H]4[C@H]3CC[C@@]21C
3. O=NN(CCCl)C(=O)NCCCl

### Response
[4, 2, 6]

Batch request: Hepatotoxicity (acute) per item, same order as input.
1. CCN(CC)CC[n+]1ccc2c(C)c3[nH]c4ccc(O)cc4c3c(C)c2c1.[Cl-] [DATELLIPTIUM CHLORIDE]
2. CNCCCC12CCC(c3ccccc31)c1ccccc12
3. COc1cc(N)c(Cl)cc1C(=O)NC1CCN(CCCOc2ccc(F)cc2)CC1OC (configuration not stated) [CISAPRIDE]
4. CSc1ccc(C(=O)c2[nH]c(=O)[nH]c2C)cc1

### Response
2
8
1
0

----------
For each entry below, report its Hepatotoxicity (choleostasis) value.
Conditions: human
Numbers only.

Consider the following items and state reported Hepatotoxicity (choleostasis) for each.
1. C[C@]12CC[C@H]3[C@@H](CCC4=CC(=O)CC[C@@H]43)[C@@H]1CC[C@@H]2O [NANDROLONE]
2. CCN(CC)CCOC(=O)[C@@H](Cc1cccc2ccccc12)C[C@@H]1CCCO1 [NAFTIDROFURYL]
3. CC(C)(C)c1ccc(CCC(O)COc2ccc(C(=O)O)cc2)cc1 (stereo unspecified) [LIFIBROL]
4. CC1(C)S[C@@H]2[C@H](N3C(=O)[C@@H](c4ccccc4)NC3(C)C)C(=O)N2[C@H]1C(=O)O [HETACILLIN]
5. CCOC(=O)C1(c2ccccc2)CCN(CCC(O)c2ccccc2)CC1 (stereo unspecified) [PHENOPERIDINE]
6. CCOC(=O)[C@H](CCc1ccccc1)N[C@@H](C)C(=O)N1[C@H](C(=O)O)C[C@@H]2CCC[C@@H]21

### Response
1
2
0
0
1
0

List reported Hepatotoxicity (choleostasis) for each of these compounds:
1. CC/C(=C(/CC)c1ccc(OP(=O)(O)O)cc1)c1ccc(OP(=O)(O)O)cc1 [DIETHYLSTILBESTROL DIPHOSPHATE]
2. CCC/C=C/C=C/C(=O)O[C@H]1/C(=C/C(=O)OC)C[C@H]2C[C@H]([C@@H](C)O)OC(=O)C[C@H](O)C[C@@H]3C[C@H](OC(C)=O)C(C)(C)[C@](O)(C[C@@H]4C/C(=C/C(=O)OC)C[C@H](/C=C/C(C)(C)[C@]1(O)O2)O4)O3 [BRYOSTATIN 1]
3. C[C@]12CCC(=O)C=C1CC[C@@H]1[C@@H]2C(=O)C[C@@]2(C)[C@H]1CC[C@]2(O)C(=O)CO [CORTISONE]
4. C[Si](C)(C)c1cccc(C(=O)C(F)(F)F)c1
5. CC(Cc1ccccc1)NCCC(c1ccccc1)c1ccccc1 (stereo unspecified) [PRENYLAMINE]
6. CN(C)CCC=C1c2ccccc2CCc2ccccc21 [AMITRIPTYLINE]
7. CCCC1C(=O)N2C(N(C)C)=Nc3ccc(C)cc3N2C1=O (stereo unspecified) [APAZONE]
8. O=C1Nc2ccccc2C1(c1ccc(O)cc1)c1ccc(O)cc1 [OXYPHENISATINE]

### Response
0
1
0
0
0
12
1
0

Below are some compounds; for each one, tell me its Hepatotoxicity (choleostasis).
1. COc1c(C)c2c(c(O)c1C/C=C(\C)CCC(=O)OCCN1CCOCC1)C(=O)OC2 [MYCOPHENOLATE MOFETIL]
2. O=[N+]([O-])c1cc(Cl)cc(-c2cc(Cl)cc([N+](=O)[O-])c2O)c1O [NICLOFOLAN]

### Response
1. 0
2. 1

----------
Assay: Times to onset, minimal and maximal, observed in the indexed observations. [column 'DELAI' in source]
Conditions: human
Give measured Hepatotoxicity (time to onset) for each item. Keep answers brief.

Worked cases, Hepatotoxicity (time to onset) given:
{"compound": "NS(=O)(=O)c1cc2c(cc1Cl)NC(C(Cl)Cl)NS2(=O)=O (stereo not drawn) [TRICHLORMETHIAZIDE]", "parameter": "Hepatotoxicity (time to onset)", "measured value": "1 week"}
{"compound": "CN(C)[C@@H]1C(O)=C(C(=O)NCN2CCCC2)C(=O)[C@@]2(O)C(O)=C3C(=O)c4c(O)cccc4[C@@](C)(O)[C@H]3C[C@@H]12 [ROLITETRACYCLINE]", "parameter": "Hepatotoxicity (time to onset)", "measured value": "2 days"}
{"compound": "COCCOC(=O)C1=C(C)NC(C)=C(C(=O)OC(C)C)C1c1cccc([N+](=O)[O-])c1 (stereo not drawn) [NIMODIPINE]", "parameter": "Hepatotoxicity (time to onset)", "measured value": "6 months"}

Report Hepatotoxicity (time to onset) for every entry below.
1. CC(C)n1c(/C=C/C(O)CC(O)CC(=O)O)c(-c2ccc(F)cc2)c2ccccc21 (stereo not drawn) [FLUVASTATIN]
2. OC(c1cc(C(F)(F)F)nc2c(C(F)(F)F)cccc12)C1CCCCN1 (stereo not drawn) [MEFLOQUINE]
3. OCCOCCN1CCN(C2=Nc3ccccc3Sc3ccccc32)CC1 [QUETIAPINE]

### Response
8 months
2 weeks - 3 weeks
1 week - 3 weeks

Quick request: Hepatotoxicity (time to onset) for each listed item, please.
1. COc1cc(NS(C)(=O)=O)ccc1Nc1c2ccccc2nc2ccccc12 [AMSACRINE]
2. CNC1=Nc2ccc(Cl)cc2C(c2ccccc2)=[N+]([O-])C1 [CHLORDIAZEPOXIDE]
3. Nc1ncnc2c1ncn2[C@@H]1O[C@H](CO)[C@@H](O)[C@@H]1O [VIDARABINE]
4. CN1C(C(=O)Nc2ccccn2)=C(O)c2sccc2S1(=O)=O [TENOXICAM]

### Response
["5 days - 1 month", "2 days - 3 years", "1 week", "3 days - 5 days"]

----------
Consider the following compounds; for each one, report its Hepatotoxicity (chronic liver disease).
Details: human, serum, 4383 h
Numbers only.

{"compound": "CO[C@@]1(NC(=O)C2SC(=C(C(N)=O)C(=O)O)S2)C(=O)N2C(C(=O)O)=C(CSc3nnnn3C)CS[C@@H]21 (some centres undefined) [CEFOTETAN]", "Hepatotoxicity (chronic liver disease)": 0}
{"compound": "C#CC(O)(/C=C/Cl)CC (centres undefined) [ETHCHLORVYNOL]", "Hepatotoxicity (chronic liver disease)": 0}
{"compound": "C[Si](C)(C)c1cccc(C(=O)C(F)(F)F)c1", "Hepatotoxicity (chronic liver disease)": 0}
{"compound": "Cc1cnc(NC(=O)C2=C(O)c3ccccc3S(=O)(=O)N2C)s1 [MELOXICAM]", "Hepatotoxicity (chronic liver disease)": 0}
{"compound": "CC(=O)N1CCN(c2ccc(OCC3COC(Cn4ccnc4)(c4ccc(Cl)cc4Cl)O3)cc2)CC1 (centres undefined) [KETOCONAZOLE]", "Hepatotoxicity (chronic liver disease)": 3}
{"compound": "C[C@@H](O)[C@H]1C(=O)N2C(C(=O)O)=C(S[C@@H]3CN[C@H](C(=O)Nc4cccc(C(=O)O)c4)C3)[C@H](C)[C@H]12", "Hepatotoxicity (chronic liver disease)": 0}
{"compound": "CCCNC(=O)NS(=O)(=O)c1ccc(Cl)cc1 [CHLORPROPAMIDE]", "Hepatotoxicity (chronic liver disease)": 0}
{"compound": "O=C(O)COc1ccc(C(=O)c2cccs2)c(Cl)c1Cl", "Hepatotoxicity (chronic liver disease)": 7}

We next turn to a different compound, shown below.
### Prompt Entry CO[C@H]1[C@@H](O)[C@H](N)[C@@H](O[C@H]2O[C@H]([C@H](C)N)CC[C@H]2N)[C@H](O)[C@@H]1N(C)C(=O)CN [ASTROMICIN] needs its Hepatotoxicity (chronic liver disease) filled in; supply it.
### Response 0
